Origin of values: ChEMBL document CHEMBL1938255

# test.name: Stability in D2O assessed as compound decomposition at pD 7 after 3 days by NMR spectroscopy
# Type: physicochemical
# test.settings: pH 7, read-out: Drug metabolism
readout.kind: degraded at 72 h (%)
Kindly answer with a numeric value in %, unit omitted.

Can you look up the measured degraded at 72 h of COc1ccc(S(=O)(=O)N2CC(=O)N(O)C(=O)[C@H]2C(C)C)cc1 for me?
3

* * *

# IC50 per record follows
# study.system: Matrix metalloproteinase-14 (Homo sapiens)
# test.name: Inhibition of human recombinant MMP14 using Mca-Lys-Pro-Leu-Gly-Leu-Dap(Dnp)-Ala-Arg-NH2 as substrate preincubated for 4 hrs measured every 15 secs for 20 mins by fluorescence analysis
Kindly answer with a numeric value in µM, unit omitted.

CC(C)[C@@H]1C(=O)N(O)C(=O)CN1S(=O)(=O)c1ccc(-c2ccccc2)cc1
3.9
COc1ccc(S(=O)(=O)N2CC(=O)N(O)C(=O)[C@H]2C(C)C)cc1
2.2

Moving on to the next compound.
Can you look up the measured IC50 of CC(C)[C@@H]1C(=O)N(O)C(=O)CN1S(=O)(=O)c1ccc(Oc2ccccc2)cc1 for me?
0.083

* * *

# study.system: Disintegrin and metalloproteinase domain-containing protein 17 (Homo sapiens, UniProt P78536)
# Sequence (P78536 whole entry, the tested form may be a part): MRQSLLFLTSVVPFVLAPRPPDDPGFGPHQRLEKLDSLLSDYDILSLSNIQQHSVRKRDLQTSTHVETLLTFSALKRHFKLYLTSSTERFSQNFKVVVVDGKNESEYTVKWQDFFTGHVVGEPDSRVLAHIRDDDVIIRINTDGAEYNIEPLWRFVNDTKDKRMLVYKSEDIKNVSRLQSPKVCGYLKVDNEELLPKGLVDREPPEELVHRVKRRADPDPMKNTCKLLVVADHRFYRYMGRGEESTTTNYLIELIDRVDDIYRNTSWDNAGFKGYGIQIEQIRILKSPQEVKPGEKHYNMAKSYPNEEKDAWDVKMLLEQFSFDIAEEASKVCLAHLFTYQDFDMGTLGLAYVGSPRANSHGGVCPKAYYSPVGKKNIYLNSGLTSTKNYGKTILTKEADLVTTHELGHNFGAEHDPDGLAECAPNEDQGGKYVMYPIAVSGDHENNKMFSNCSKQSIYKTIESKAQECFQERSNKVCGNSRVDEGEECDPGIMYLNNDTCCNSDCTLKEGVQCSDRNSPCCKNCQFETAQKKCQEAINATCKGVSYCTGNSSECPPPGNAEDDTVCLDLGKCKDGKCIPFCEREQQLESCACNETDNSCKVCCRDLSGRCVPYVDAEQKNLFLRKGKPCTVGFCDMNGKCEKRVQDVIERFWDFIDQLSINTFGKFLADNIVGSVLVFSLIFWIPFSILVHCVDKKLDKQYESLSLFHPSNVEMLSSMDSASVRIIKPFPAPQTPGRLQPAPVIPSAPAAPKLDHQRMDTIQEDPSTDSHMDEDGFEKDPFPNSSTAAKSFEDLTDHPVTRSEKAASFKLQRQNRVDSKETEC
# IC50 per record follows
Kindly answer with a numeric value in µM, unit omitted.

Worked examples, 2 compounds total:
CC(C)[C@@H]1C(=O)N(O)C(=O)CN1S(=O)(=O)c1ccc(Oc2ccccc2)cc1
10
COc1ccc(S(=O)(=O)N2CC(=O)N(O)C(=O)[C@H]2C(C)C)cc1
33

Can you look up the measured IC50 of CC(C)[C@@H]1C(=O)N(O)C(=O)CN1S(=O)(=O)c1ccc(-c2ccccc2)cc1 for me?
16

* * *

# study.system: Macrophage metalloelastase (Homo sapiens)
# Sequence (P39900 whole entry): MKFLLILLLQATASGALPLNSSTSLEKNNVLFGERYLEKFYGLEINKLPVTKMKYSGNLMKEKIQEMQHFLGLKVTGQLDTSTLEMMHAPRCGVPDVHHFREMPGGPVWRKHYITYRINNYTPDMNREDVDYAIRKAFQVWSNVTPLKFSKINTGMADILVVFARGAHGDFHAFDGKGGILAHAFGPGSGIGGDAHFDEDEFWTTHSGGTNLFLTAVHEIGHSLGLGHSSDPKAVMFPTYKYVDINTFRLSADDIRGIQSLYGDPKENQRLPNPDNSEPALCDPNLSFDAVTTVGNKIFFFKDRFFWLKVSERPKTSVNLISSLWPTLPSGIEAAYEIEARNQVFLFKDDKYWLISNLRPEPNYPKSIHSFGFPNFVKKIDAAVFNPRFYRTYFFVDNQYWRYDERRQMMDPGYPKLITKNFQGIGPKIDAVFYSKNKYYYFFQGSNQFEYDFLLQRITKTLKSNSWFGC
readout.kind: pIC50
Note on pIC50: it is the negative log10 of concentration, concentration in mol/L.

Can you look up the measured pIC50 of COc1ccc(S(=O)(=O)N2CC(=O)N(O)C(=O)[C@H]2C(C)C)cc1 for me?
7.18

* * *

# pIC50 per record follows
# study.system: Matrix metalloproteinase-9 (Homo sapiens, UniProt P14780)
# Sequence (P14780 whole entry): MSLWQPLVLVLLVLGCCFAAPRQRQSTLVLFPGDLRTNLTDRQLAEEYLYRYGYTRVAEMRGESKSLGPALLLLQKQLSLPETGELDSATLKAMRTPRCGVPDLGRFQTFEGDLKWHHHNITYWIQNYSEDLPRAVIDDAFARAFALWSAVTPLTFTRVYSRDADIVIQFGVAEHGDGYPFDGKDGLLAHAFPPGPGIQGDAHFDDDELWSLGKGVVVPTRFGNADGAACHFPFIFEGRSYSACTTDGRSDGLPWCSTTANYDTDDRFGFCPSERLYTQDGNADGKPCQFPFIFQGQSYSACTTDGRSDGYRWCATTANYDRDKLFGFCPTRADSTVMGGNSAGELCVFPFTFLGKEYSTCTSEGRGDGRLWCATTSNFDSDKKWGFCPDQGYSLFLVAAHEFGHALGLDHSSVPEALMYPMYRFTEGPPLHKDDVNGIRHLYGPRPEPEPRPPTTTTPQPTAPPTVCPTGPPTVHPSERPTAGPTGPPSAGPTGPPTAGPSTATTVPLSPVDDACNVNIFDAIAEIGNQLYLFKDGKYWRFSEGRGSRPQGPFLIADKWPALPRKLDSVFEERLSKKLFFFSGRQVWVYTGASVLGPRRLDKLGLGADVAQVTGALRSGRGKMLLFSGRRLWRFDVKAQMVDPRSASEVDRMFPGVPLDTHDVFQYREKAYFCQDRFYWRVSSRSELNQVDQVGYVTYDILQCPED
# test.name: Inhibition of human recombinant MMP9 using Mca-Lys-Pro-Leu-Gly-Leu-Dap(Dnp)-Ala-Arg-NH2 as substrate preincubated for 4 hrs measured every 15 secs for 20 mins by fluorescence analysis
Note on pIC50: it is the negative log10 of concentration, concentration in mol/L.

Worked examples, 2 molecules total:
COc1ccc(S(=O)(=O)N2CC(=O)N(O)C(=O)[C@H]2C(C)C)cc1
6.16
CC(C)[C@@H]1C(=O)N(O)C(=O)CN1S(=O)(=O)c1ccc(Oc2ccccc2)cc1
7.52

Moving on to the next molecule.
Can you look up the measured pIC50 of CC(C)[C@@H]1C(=O)N(O)C(=O)CN1S(=O)(=O)c1ccc(-c2ccccc2)cc1 for me?
6.18

* * *

Below are pIC50 values recorded for Collagenase 3 (Homo sapiens).
Note on pIC50: it is the negative log10 of concentration, concentration in mol/L.

CC(C)[C@@H]1C(=O)N(O)C(=O)CN1S(=O)(=O)c1ccc(-c2ccccc2)cc1
7.28

Moving on to the next compound.
Can you look up the measured pIC50 of COc1ccc(S(=O)(=O)N2CC(=O)N(O)C(=O)[C@H]2C(C)C)cc1 for me?
6.52

* * *

# study.system: 72 kDa type IV collagenase (Homo sapiens, UniProt P08253)
# Sequence (P08253 whole entry): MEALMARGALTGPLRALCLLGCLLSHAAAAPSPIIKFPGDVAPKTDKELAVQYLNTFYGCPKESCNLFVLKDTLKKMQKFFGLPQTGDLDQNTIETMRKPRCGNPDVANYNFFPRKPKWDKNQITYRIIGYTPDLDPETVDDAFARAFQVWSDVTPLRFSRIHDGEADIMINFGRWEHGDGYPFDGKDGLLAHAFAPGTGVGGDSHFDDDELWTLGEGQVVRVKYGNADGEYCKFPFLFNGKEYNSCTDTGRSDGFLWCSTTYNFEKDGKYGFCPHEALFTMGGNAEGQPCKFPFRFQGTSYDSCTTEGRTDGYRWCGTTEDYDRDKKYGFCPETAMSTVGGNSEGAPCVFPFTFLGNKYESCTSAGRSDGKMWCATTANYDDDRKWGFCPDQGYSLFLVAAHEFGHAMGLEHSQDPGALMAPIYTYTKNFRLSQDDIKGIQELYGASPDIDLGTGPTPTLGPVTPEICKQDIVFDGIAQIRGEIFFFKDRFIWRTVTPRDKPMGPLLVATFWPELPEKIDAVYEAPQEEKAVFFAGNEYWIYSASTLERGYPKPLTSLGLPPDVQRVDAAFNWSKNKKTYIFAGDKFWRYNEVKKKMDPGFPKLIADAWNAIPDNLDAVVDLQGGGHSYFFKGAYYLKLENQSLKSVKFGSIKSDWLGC
# test.name: Inhibition of human recombinant MMP2 using Mca-Lys-Pro-Leu-Gly-Leu-Dap(Dnp)-Ala-Arg-NH2 as substrate preincubated for 4 hrs measured every 15 secs for 20 mins by fluorescence analysis
readout.kind: IC50 (nM)
Kindly answer with a numeric value in nM, unit omitted.

COc1ccc(S(=O)(=O)N2CC(=O)N(O)C(=O)[C@H]2C(C)C)cc1
1200
CC(C)[C@@H]1C(=O)N(O)C(=O)CN1S(=O)(=O)c1ccc(-c2ccccc2)cc1
240

Moving on to the next compound.
Which IC50 is reported with 72 kDa type IV collagenase (Homo sapiens, UniProt P08253) for this entry: CC(C)[C@@H]1C(=O)N(O)C(=O)CN1S(=O)(=O)c1ccc(Oc2ccccc2)cc1 ?
30

* * *

# test.name: Stability in D2O assessed as compound decomposition at pD 2 after 24 hrs by NMR spectroscopy
# Type: physicochemical
# test.settings: pH 2, read-out: Drug metabolism
readout.kind: degraded at 24 h

Can you look up the measured degraded at 24 h of COc1ccc(S(=O)(=O)N2CC(=O)N(O)C(=O)[C@H]2C(C)C)cc1 for me?
< 1%
